Hello, the source for this data is patent US11673898B2, in case you need it.

Recorded measurements of pIC50, one per entry
# target: Menin MLL 4-43 (Homo sapiens, UniProt O00255)
# protocol.notes: Fluorescence polarization (FP) competition assay of the menin-MLL interaction
# Assay type: binding
# conditions.used: fluorescence polarization assay; read-out: Menin MLL 4-43 IC50
pIC50: −log10 of the molar value.

Reported pIC50, compound `CCCCNS(=O)(=O)N1CCN([C@@H](C)Cn2c(C#N)cc3c(C)c(CN4CCC(Nc5ncnc6sc(CC(F)(F)F)cc56)CC4)ccc32)CC1` : ____ 6.60 to 7.30

Continue with Cc1c(CN2CCC(Nc3ncnc4sc(CC(F)(F)F)cc34)CC2)ccc2c1cc(C#N)n2CC(C)N1CCN(S(C)(=O)=O)C(C(N)=O)C1 (stereo not drawn) > 7.30

Continue with `CNc1nc(NC2CCN(Cc3ccc4c(cc(C#N)n4C[C@H](C)N4CCN(C)C(=O)C4)c3C)CC2)c2cc(CC(F)(F)F)sc2n1` > 7.30

---

# target: Menin MLL 4-43 (Homo sapiens, UniProt O00255)
# Sequence (O00255 1-610): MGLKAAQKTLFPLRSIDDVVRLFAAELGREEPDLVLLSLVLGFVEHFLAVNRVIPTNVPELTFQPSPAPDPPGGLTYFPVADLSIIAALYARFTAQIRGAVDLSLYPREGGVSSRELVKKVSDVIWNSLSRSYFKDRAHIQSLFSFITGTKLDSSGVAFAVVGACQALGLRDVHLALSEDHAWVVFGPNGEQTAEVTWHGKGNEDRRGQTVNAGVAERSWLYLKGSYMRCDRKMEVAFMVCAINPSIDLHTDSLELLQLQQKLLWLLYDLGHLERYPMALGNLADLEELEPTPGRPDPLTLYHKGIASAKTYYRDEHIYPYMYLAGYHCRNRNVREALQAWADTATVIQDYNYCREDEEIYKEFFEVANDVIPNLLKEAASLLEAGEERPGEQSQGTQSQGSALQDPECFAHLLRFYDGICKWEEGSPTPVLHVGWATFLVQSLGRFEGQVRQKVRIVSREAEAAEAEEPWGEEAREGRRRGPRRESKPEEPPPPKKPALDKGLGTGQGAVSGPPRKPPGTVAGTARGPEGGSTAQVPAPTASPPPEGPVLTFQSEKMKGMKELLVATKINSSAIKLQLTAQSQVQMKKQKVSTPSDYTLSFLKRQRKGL
# protocol.notes: Fluorescence polarization (FP) competition assay of the menin-MLL interaction
# Assay type: binding
# conditions.used: fluorescence polarization assay; read-out: Menin MLL 4-43 IC50
measure: IC50

Please review the following examples before continuing.
Cc1c(CN2CCC(Nc3ncnc4sc(CC(F)(F)F)cc34)CC2)ccc2c1cc(C#N)n2C[C@H](C)N1CCN(S(=O)(=O)NCCO)CC1 [Compound 131]	< 50 nM
CNc1nc(NC2CCN(Cc3ccc4c(cc(C#N)n4C[C@H](C)N4CCC(C)(O)CC4)c3C)CC2)c2cc(CC(F)(F)F)sc2n1 [Compound 207]	< 50 nM
Cc1c(CN2CCC(Nc3ncnc4sc(CC(F)(F)F)cc34)CC2)ccc2c1cc(C#N)n2CC(C)N1C[C@H](C)N(S(C)(=O)=O)[C@@H](C)C1 (stereo partly drawn) [Compound 21]	50 to 250 nM
CNS(=O)(=O)C1CCN(C(C)Cn2c(C#N)cc3c(C)c(CN4CCC(Nc5ncnc6sc(CC(F)(F)F)cc56)CC4)ccc32)CC1 (stereo not drawn) [Compound 128]	50 to 250 nM
Cc1c(CN2CCC(Nc3ncnc4sc(CC(F)(F)F)cc34)CC2)ccc2c1cc(C#N)n2C[C@H](C)N1CCN(S(=O)(=O)CC(C)C)CC1 [Compound 116]	50 to 250 nM

Reported IC50, compound CCC(=O)NC1CCN([C@@H](C)Cn2c(C#N)cc3c(C)c(CN4CCC(Nc5nc(NC)nc6sc(CC(F)(F)F)cc56)CC4)ccc32)CC1 [Compound 213] : ____ < 50 nM

Continue with CNc1nc(NC2CCN(Cc3ccc4c(cc(C#N)n4C[C@H](C)N4CCN(CC(N)=O)CC4)c3C)CC2)c2cc(CC(F)(F)F)sc2n1 [Compound 182] < 50 nM

Continue with Cc1c(CN2CCC(Nc3nc(N)nc4sc(CC(F)(F)F)cc34)CC2)ccc2c1cc(C#N)n2C[C@H](C)N1CCC(F)(F)CC1 [Compound 168] 50 to 250 nM

---

# target: Menin MLL 4-43 (Homo sapiens)
# protocol.notes: Fluorescence polarization (FP) competition assay of the menin-MLL interaction
# Type: binding
# conditions.used: fluorescence polarization assay; read-out: Menin MLL 4-43 IC50
Recorded measurements of IC50, one per entry

Please review the following examples before continuing.
Cc1c(CN2CCC(Nc3ncnc4sc(CC(F)(F)F)cc34)CC2)ccc2c1cc(C#N)n2C[C@H](C)N1CCN(S(=O)(=O)N(C)C)CC1 [Compound 89]	< 50 nM
Cc1c(CN2CCC(Nc3ncnc4sc(CC(F)(F)F)cc34)CC2)ccc2c1cc(C#N)n2CCN1CCN(S(C)(=O)=O)CC1C (stereo not drawn) [Compound 45]	20 to 1000 nM
C[C@@H](Cn1c(C#N)cc2cc(CN3CCC(Nc4nc(N)nc5sc(CC(F)(F)F)cc45)CC3)c(O)cc21)N1CCN(S(C)(=O)=O)CC1 [Compound 172]	< 50 nM
Cc1c(CN2CCC(Nc3ncnc4sc(CC(F)(F)F)cc34)CC2)ccc2c1cc(C#N)n2CCN1CC2(CCN(S(C)(=O)=O)CC2)C1 [Compound 56]	20 to 1000 nM

Reported IC50, compound Cc1nc(NC2CCN(Cc3ccc4c(cc(C#N)n4C[C@H](C)N4CCC(S(C)(=O)=O)CC4)c3C)CC2)c2cc(CC(F)(F)F)sc2n1 [Compound 165] : ____ < 50 nM

Continue with CNc1nc(NC2CCN(Cc3ccc4c(cc(C#N)n4C[C@H](C)N4CCN(S(C)(=O)=O)[C@H](C#N)C4)c3C)CC2)c2cc(CC(F)(F)F)sc2n1 [Compound 209] < 50 nM

Continue with Cc1c(CN2CCC(Nc3nc(F)nc4sc(CC(F)(F)F)cc34)CC2)ccc2c1cc(C#N)n2C[C@H](C)N1CCN(S(C)(=O)=O)CC1 [Compound 222] < 50 nM

Continue with CNc1nc(NC2CCN(Cc3ccc4c(cc(C#N)n4CCN4CCN(S(C)(=O)=O)CC4)c3C)CC2)c2cc(CC(F)(F)F)sc2n1 [Compound 1022] < 50 nM

Continue with Cc1c(CN2CCC(Nc3ncnc4sc(CC(F)(F)F)cc34)CC2)ccc2c1cc(C#N)n2C[C@@H](C)N1CCN(S(C)(=O)=O)CC1 [Compound 9] > 1000 nM

Continue with Cc1c(CN2CCC(Nc3ncnc4sc(CC(F)(F)F)cc34)CC2)ccc2c1cc(C#N)n2C[C@H](C)N1CCN(S(=O)(=O)CCF)CC1 [Compound 69] 50 to 250 nM

Continue with Cc1c(CN2CCC(Nc3nc(N)nc4sc(CC(F)(F)F)cc34)CC2)ccc2c1cc(C#N)n2C[C@H](C)N1CCN(S(=O)(=O)C2CC2)CC1 [Compound 147] < 50 nM

Continue with Cc1c(CN2CCC(Nc3ncnc4sc(CC(F)(F)F)cc34)CC2)ccc2c1cc(C#N)n2C[C@H](C)N1CCNCC1 [Compound 148] < 50 nM

Continue with Cc1c(CN2CCC(Nc3ncnc4sc(CC(F)(F)F)cc34)CC2)ccc2c1cc(C#N)n2CC(C)N1CC2CC(C1)N2S(C)(=O)=O (stereo not drawn) [Compound 30] 50 to 250 nM

Continue with CNc1nc(NC2CCN(Cc3ccc4c(cc(C#N)n4C[C@H](C)N4CCN(S(=O)(=O)NC)CC4)c3C)CC2)c2cc(CC(F)(F)F)sc2n1 [Compound 192] < 50 nM

Continue with COC(=O)N1CCN([C@@H](C)Cn2c(C#N)cc3c(C)c(CN4CCC(Nc5ncnc6sc(CC(F)(F)F)cc56)CC4)ccc32)CC1 [Compound 72] 50 to 250 nM

Continue with Cc1c(CN2CCC(Nc3ncnc4sc(CC(F)(F)F)cc34)CC2)ccc2c1cc(C#N)n2CCN1CC2(CCN(S(C)(=O)=O)C2)C1 [Compound 58] 20 to 1000 nM

Continue with Cc1c(CN2CCC(Nc3ncnc4sc(CC(F)(F)F)cc34)CC2)ccc2c1cc(C#N)n2CCc1ccc(NC(=O)C2(C#N)CC2)cc1 [Compound 1002] 50 to 250 nM

Continue with CNc1nc(NC2CCN(Cc3ccc4c(cc(C#N)n4CC(C)c4cn[nH]c4)c3C)CC2)c2cc(CC(F)(F)F)sc2n1 (stereo not drawn) [Compound 230] 50 to 250 nM

Continue with Cc1c(CN2CCC(Nc3nc(C4CC4)nc4sc(CC(F)(F)F)cc34)CC2)ccc2c1cc(C#N)n2C[C@H](C)N1CCN(S(C)(=O)=O)CC1 [Compound 173] 20 to 1000 nM

Continue with CNc1nc(NC2CCN(Cc3ccc4c(cc(C#N)n4C[C@H](C)N4CCNC(=O)C4)c3C)CC2)c2cc(CC(F)(F)F)sc2n1 [Compound 244] < 50 nM

Continue with Cc1nc(NC2CCN(Cc3ccc4c(cc(C#N)n4C[C@H](C)N4CCC(S(C)(=O)=O)CC4)c3C)CC2)c2cc(C(O)C(F)(F)F)sc2n1 (stereo partly drawn) [Compound 280] 50 to 250 nM

Continue with CNc1nc(NC2CCN(Cc3ccc4c(cc(C#N)n4CCN4CCNC(=O)C4)c3C)CC2)c2cc(CC(F)(F)F)sc2n1 [Compound 1025] < 50 nM

Continue with Cc1c(CN2CCC(Nc3ncnc4sc(CC(F)(F)F)cc34)CC2)ccc2c1cc(C#N)n2CC(C)N1CCN(S(C)(=O)=O)C(C)(C)C1 (stereo not drawn) [Compound 25] 50 to 250 nM

Continue with Cc1c(CN2CCC(Nc3ncnc4sc(CC(F)(F)F)cc34)CC2)ccc2c1cc(C#N)n2C[C@H](C)N1CCN(S(C)(=O)=O)[C@@H](C(N)=O)C1 [Compound 164] 50 to 250 nM
